// provenance: paper PMC7174661

systemUnderTest: UCP1 (Mus musculus, UniProt P12242)
Construct: native full-length protein in the inner mitochondrial membrane; mitoplasts from brown (or beige) fat; no tags
Sequence (P12242 whole entry): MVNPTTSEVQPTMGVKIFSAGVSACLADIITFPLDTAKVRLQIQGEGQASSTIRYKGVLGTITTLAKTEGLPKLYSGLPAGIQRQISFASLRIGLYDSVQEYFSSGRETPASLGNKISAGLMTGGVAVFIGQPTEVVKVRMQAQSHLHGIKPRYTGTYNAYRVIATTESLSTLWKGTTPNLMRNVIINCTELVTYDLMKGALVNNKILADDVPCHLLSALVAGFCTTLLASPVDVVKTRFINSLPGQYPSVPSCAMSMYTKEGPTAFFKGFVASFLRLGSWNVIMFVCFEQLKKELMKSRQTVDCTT
assaySummary: whole-mitoplast patch-clamp, inhibition of H+ current
Type: biochemical
conditionSummary: Mg2+-free ATP, cytosolic side; current activated by 0.2 mM oleic acid / 10 mM MβCD; symmetrical pH 7.0; competitive with fatty acid; figure reproduced from the same laboratory's Fedorenko et al. 2012
readoutName: pIC50
// pIC50: -log10(molar conc.)

For Nc1ncnc2c1ncn2[C@@H]1O[C@H](COP(=O)(O)OP(=O)(O)OP(=O)(O)O)[C@@H](O)[C@H]1O the compound record lists pIC50 as 5.68
